Tested on: EGFRvIII-mFc
Sequence (as listed by the source): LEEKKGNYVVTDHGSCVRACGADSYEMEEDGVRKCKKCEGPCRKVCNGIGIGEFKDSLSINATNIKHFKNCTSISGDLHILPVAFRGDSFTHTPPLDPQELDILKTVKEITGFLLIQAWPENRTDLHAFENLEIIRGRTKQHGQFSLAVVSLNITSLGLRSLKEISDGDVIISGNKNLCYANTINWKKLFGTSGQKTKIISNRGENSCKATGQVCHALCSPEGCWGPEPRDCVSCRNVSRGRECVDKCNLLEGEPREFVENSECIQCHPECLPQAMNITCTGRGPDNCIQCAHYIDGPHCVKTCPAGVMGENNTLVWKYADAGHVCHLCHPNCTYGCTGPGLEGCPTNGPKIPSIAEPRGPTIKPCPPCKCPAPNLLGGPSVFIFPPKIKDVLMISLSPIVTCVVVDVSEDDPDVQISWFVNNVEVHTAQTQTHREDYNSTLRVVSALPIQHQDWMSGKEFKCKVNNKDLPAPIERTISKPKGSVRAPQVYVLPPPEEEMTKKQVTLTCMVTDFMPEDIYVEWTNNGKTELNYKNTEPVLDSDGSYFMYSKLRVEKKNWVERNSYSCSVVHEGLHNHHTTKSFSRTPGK
Format: binding, human
Details: 37° C., receptor-capture, EGFRvIII-mFc captured
Measured metric: ka
Respond with a number, then the unit of measure.

Short answer for H1H1915N: human IgG1 Fc anti-EGFRvIII antibody with variable domains 1915; HCVR/LCVR SEQ ID NOs 82/90 (antibody, V domains shown, human IgG1 Fc) VH: QVQLVESGGGVVQPGRSLRLSCAASGFTFSAYAMHWVRQAPGKGLEWVAVIWYDGSNKNYADSVKGRFTVSRDNSKNTLYLEMNSLRAEDTAVYYCARDLMVGVTNYWGQGTLVTVST VL: DVVMTQSPLSLPVALGQPASISCRSSQSLVYTDGNTYLNWFHQRPGQSPRRLIYKVSNRDSGVPDRFTGSGSGTDFTLKISRVEAEDVGVFYCMQGSHWPPYTFGQGTKLEIK : ka was 100000 M⁻¹ s⁻¹
